experimental-target: T1, human galectin-10-His (human)
T1 construct: Whether the last M of the tag is the start Met of galectin-10 is not clear; also called human Gal10-HIS; humanGal10-His
T1 chain: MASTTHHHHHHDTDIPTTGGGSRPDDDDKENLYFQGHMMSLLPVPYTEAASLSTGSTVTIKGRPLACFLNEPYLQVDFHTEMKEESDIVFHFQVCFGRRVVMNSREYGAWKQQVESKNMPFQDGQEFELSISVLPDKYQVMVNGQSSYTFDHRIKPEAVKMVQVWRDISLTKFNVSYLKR
experiment-description: ELISA, Gal10-His coated at 1 ug/mL, VHH titrated, anti-Myc-HRP
Bmax (OD values) by entry:

[
  {
    "binder": "VHH clone 13C06 (VHH, Purified VHH-Myc-His from E. coli; not shown: Myc and His tags of the phagemid vector) VHH: QLQLVESGGGLVQAGGSLRLSCAASSSSYSMGWFRQAPGKEREFVATISWSGGFYYDDSVKGRFTVSRDNAKNTVYLQMNSLKPEDTAVYYCAAGTRFSFSYREYHYWGQGTQVTVSS",
    "Bmax (OD values) (OD)": 2.8
  },
  {
    "binder": "VHH clone 13C07 (VHH, Purified VHH-Myc-His from E. coli; not shown: Myc and His tags of the phagemid vector) VHH: QLQVVESGGGLVQAGGSLRLSCAASSSAYSMAWFRQAPGKEREFVAAITWSGGSHHDDSVKGRFTISRDGAKNTVYLQMNSLKPEDTAVYYCAVGTLYSFSYRDYDYWGQGTQVTVSS",
    "Bmax (OD values) (OD)": 1.3
  },
  {
    "binder": "VHH clone 13C10 (VHH, Purified VHH-Myc-His from E. coli; not shown: Myc and His tags of the phagemid vector) VHH: QLQLVESGGGLVQAGGSLKLSCAASGRTFNPYTMGWFRQAPGKEREFVAVVSSGGGTYYANSVKGRFTISRDNAKATVYLQMNSLKPEDTAVYYCAAGSIFRWSPMSYDYWGQGTQVTVSS",
    "Bmax (OD values) (OD)": 1
  },
  {
    "binder": "VHH clone 13C03 (VHH, Purified VHH-Myc-His from E. coli; not shown: Myc and His tags of the phagemid vector) VHH: QVQLVESGGGLVQPGGSLRLSCAASGSIFSISRMGWYRQAPGKQRELVAIIFSDASTDYADSVKGRFTISRSNAKNTVYLQMNSLKPEDTAVYYCKSVLRAAGYGYFNQYWGQGTQVTVSS",
    "Bmax (OD values) (OD)": 2
  }
]
